target: human CYP11B1 (Homo sapiens); test: G-402 cellular enzyme assay, human CYP11B1 (cortisol release, HTRF); settings: G-402 cells, 1 μM Deoxycortisol
recorded-metric: EC50 (nM)

> print(dat)
                                   compound              target.or.system  recorded.metric  observed.result
1  O=C1c2ccc(Cl)cc2CCN1c1cncc(-c2cn[nH]c2)c1  human CYP11B1 (Homo sapiens)             EC50              745
2  Cn1cc(Cc2cncc(N3C(=O)c4ccc(Cl)cc4C3(C)C)c2)cn1  human CYP11B1 (Homo sapiens)             EC50                3
3  O=C1c2ccc(Cl)cc2CCN1c1cncc(CN2CCC3(COC3)C2)c1  human CYP11B1 (Homo sapiens)             EC50             14.6

a: CCC1c2cc(Cl)ccc2C(=O)N1c1cncc(F)c1 (single isomer, unassigned) [Example 309]
b: Cn1ncc2c(N3CCc4cc(Cl)ccc4C3=O)cncc21
c: CCC1c2cc(Cl)ccc2C(=O)N1c1cnccc1Cl (stereo not drawn)
Put the entries in order of EC50, starting with the largest number. Write the labels out in the order the request specifies.
a, b, c

1: Cn1nccc1CNc1cncc(N2CCc3cc(Cl)ccc3C2=O)c1
2: O=C1c2ccc(Cl)cc2CN1c1cncc(Cn2cncn2)c1
3: O=C1c2ccc(Cl)cc2CN1c1cncc(N2CC[C@@H](O)C2)c1
4: CCC1c2ccc(Cl)cc2C(=O)N1c1cncc(F)c1 (single isomer, unassigned) [Example 308]
5: COc1cncc(N2CCc3nc(O)ccc3C2=O)c1
Order the records so the highest EC50 appears first and the lowest last. In your reply, arrange the labels in the requested order.
4, 5, 1, 2, 3

1: CC1(C)c2cc(Cl)ccc2C(=O)N1c1cncc(OC2CN(S(C)(=O)=O)C2)c1
2: CCS(=O)(=O)NCc1cncc(N2C(=O)c3ccc(C#N)cc3C2(C)C)c1
3: CCC(=O)NC1CCCc2c1cncc2N1CCc2cc(Cl)ccc2C1=O (single isomer, unassigned) [Example 329]
4: CC(O)c1cncc(N2C(=O)c3ccc(Cl)cc3C2C)c1 (stereo not drawn)
Please order the records by their reported EC50, lowest number first. Rank them, then answer with their labels in that order.
4, 1, 2, 3

###

Molecular target: human CYP11B1 (Homo sapiens)
Construct: expressed in transfected cells
Sequence (P15538 25-503): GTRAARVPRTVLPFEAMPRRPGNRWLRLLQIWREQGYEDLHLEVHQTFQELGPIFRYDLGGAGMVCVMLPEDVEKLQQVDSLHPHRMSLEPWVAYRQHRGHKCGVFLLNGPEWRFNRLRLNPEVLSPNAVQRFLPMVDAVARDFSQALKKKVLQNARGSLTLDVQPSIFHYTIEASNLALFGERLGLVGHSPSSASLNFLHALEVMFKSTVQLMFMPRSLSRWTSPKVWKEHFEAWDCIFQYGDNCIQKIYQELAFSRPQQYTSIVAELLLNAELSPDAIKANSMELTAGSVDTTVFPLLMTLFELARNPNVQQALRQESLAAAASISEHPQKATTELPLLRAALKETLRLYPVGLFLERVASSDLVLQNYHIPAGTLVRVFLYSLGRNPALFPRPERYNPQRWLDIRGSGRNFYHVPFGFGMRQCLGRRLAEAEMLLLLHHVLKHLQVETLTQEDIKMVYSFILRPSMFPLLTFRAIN
Experiment: G-402 cellular enzyme assay, human CYP11B1 (cortisol release, HTRF)
Format: cell-based
Details: G-402 cells, 1 μM Deoxycortisol
recorded-metric: EC50 (µM)

> print(dat)
                                   compound  observed.result
1   O=C1c2ccc(Cl)cc2CCN1c1cncc(CN2CCOCC2)c1            0.193
2  CCC(=O)N[C@@H]1CCCc2c1cncc2N1C(=O)c2ccc(Cl)cc2[C@@H]1CC (single isomer, unassigned)             16.2
3  CCS(=O)(=O)NCc1cncc(N2C(=O)c3ccc(F)cc3C2(C)C)c1             3.97
4  COC[C@@H]1CCCN1Cc1cncc(N2CCc3cc(Cl)ccc3C2=O)c1             1.11
5  CCS(=O)(=O)N(C)Cc1cncc(N2C(=O)c3ccc(F)cc3C23CC3)c1             2.92
6  Cn1ncc(Cl)c1-c1cncc(N2CCc3cc(Cl)ccc3C2=O)c1           0.0324
7  NC1CCCc2c1cncc2N1Cc2cc(Cl)ccc2C1=O (stereo not drawn)             6.48
8  CC1c2cc(Cl)ccc2C(=O)N1c1cccnc1 (stereo not drawn)             1.25

1: O=C1c2ccc(Cl)cc2CCN1c1cncc(Cn2ccnc2C(F)(F)F)c1
2: Cc1ccncc1N1C(=O)c2ccc(Cl)cc2C1C (stereo not drawn)
3: O=C1c2ccc(Cl)cc2CCN1c1cncc(COC2CCC2)c1
Rank the items in ascending order with respect to EC50. Provide the labels, sequenced as the question asks.
2, 3, 1

A: Cc1c(-c2cncc(N3CCc4cc(Cl)ccc4C3=O)c2)ncn1C
B: O=C1c2ccc(Cl)cc2CCN1c1cncc(-c2cc(F)ccc2F)c1
C: O=C1c2ccc(Cl)cc2CCN1c1cncc(Cn2cncn2)c1
Descending sort on EC50 required. Return the labels ranked in the requested order, please.
A, C, B

a: Cc1noc(C)c1Cc1cncc(N2CCc3cc(Cl)ccc3C2=O)c1
b: CC(O)(c1cc(F)cc(F)c1)c1cncc(N2CCc3cc(Cl)ccc3C2=O)c1 (stereo not drawn)
Identify the entry with the larger EC50. Options: a and b Answer by stating the label of the chosen item.
a
(a: 0.9 µM, b: 0.149 µM)

###

biological target: human CYP11B1 (Homo sapiens, UniProt P15538); test: G-402 cellular enzyme assay, human CYP11B1 (cortisol release, HTRF); conditions: G-402 cells, 1 μM Deoxycortisol
pEC50: −log10 of the molar value.
recorded-metric: pEC50

> print(dat)
                                   compound  observed.result
1  CCS(=O)(=O)N1CC[C@@H](Oc2cncc(N3C(=O)c4ccc(Cl)cc4C3(C)C)c2)C1 [Example 447]             6.63
2  Cc1cc(-c2cncc(N3CCc4cc(Cl)ccc4C3=O)c2)n(C)n1 [Example 422]             4.95

P: O=C1c2ccc(Cl)cc2CCN1c1cncc(Cn2cccn2)c1 [Example 160]
Q: CCc1nc(C)cn1Cc1cncc(N2CCc3cc(Cl)ccc3C2=O)c1 [Example 143]
R: Nc1ccn(Cc2cncc(N3CCc4cc(Cl)ccc4C3=O)c2)n1 [Example 382]
Rank by pEC50 (largest to smallest). Returns: the labels listed in the requested order.
P, R, Q

###

target: UniProtKB P19099; assay: G-402 cellular enzyme assay, human CYP11B2 (aldosterone release, HTRF); settings: G-402 cells, 1 μM Deoxycorticosterone
Sequence (P19099 25-503): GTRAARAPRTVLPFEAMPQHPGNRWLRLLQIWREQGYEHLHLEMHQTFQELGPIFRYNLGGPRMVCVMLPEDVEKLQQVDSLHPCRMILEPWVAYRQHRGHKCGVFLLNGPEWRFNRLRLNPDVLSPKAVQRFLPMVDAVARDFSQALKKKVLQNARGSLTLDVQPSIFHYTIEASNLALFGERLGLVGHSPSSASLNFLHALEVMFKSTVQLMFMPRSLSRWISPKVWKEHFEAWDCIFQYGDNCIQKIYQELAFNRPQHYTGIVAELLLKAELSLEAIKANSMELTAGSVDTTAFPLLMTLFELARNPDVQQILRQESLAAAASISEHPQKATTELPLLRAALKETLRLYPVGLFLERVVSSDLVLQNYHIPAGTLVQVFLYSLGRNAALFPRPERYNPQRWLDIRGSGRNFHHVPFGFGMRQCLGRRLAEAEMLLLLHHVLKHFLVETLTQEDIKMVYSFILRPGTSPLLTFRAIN
recorded-metric: EC50 (nM)

> print(dat)
                                   compound  target.or.system  recorded.metric  output.unit  observed.result
1  CC1(C)c2cc(Cl)ccc2C(=O)N1c1cncc(CN2CCNC2=O)c1  UniProtKB P19099             EC50           nM             19.6
2  C[S+]([O-])c1cncc(N2CCc3cc(Cl)ccc3C2=O)c1 (stereo not drawn)  UniProtKB P19099             EC50           nM              600

I: COC(C)(C)c1cncc(N2CCc3cc(Cl)ccc3C2=O)c1
II: Cn1ncc(Cl)c1-c1cncc(N2C(=O)c3ccc(Cl)cc3C2(C)C)c1
Between the entries labelled I and II , which has a larger EC50 value on record? Indicate your choice by writing its label.
I

P: O=C1c2ccc(Cl)cc2CCN1c1cncc(COC2CCC2)c1
Q: CC(c1cncc(N2CCc3cc(Cl)ccc3C2=O)c1)N(C)C (stereo not drawn)
From the items above, decide which of P and Q has the lower EC50 reading. I would appreciate it if you answered with the label of your choice.
P

P: CC1(C)c2cc(Cl)ccc2C(=O)N1c1cncc(Cn2cccn2)c1
Q: CC1(C)c2cc(Cl)ccc2C(=O)N1c1cncc(CO)c1
R: COC(c1ccncc1N1CCc2cc(Cl)ccc2C1=O)C1CC1 (stereo not drawn)
S: CS(=O)(=O)NC1CCCc2c1cncc2N1Cc2cc(Cl)ccc2C1=O (single isomer, unassigned) [Example 327]
Order the records so the highest EC50 appears first and the lowest last. Return value: ordered labels per request.
S, R, Q, P
(S: 1360 nM, R: 761 nM, Q: 98.6 nM, P: 25.8 nM)

P: CC1(C)c2cc(Cl)ccc2C(=O)N1c1cncc(CNS(C)(=O)=O)c1
Q: O=C1c2ccc(Cl)cc2CCN1c1cncc(Cn2cnnc2)c1
When their EC50 values are compared, which is larger, P or Q ? Record your answer as the label of the chosen record.
Q
(Q: 620 nM, P: 29.7 nM)

Provenance of the data: patent US9133158B2
